Data credit: PubChem BioAssay (NCI)

Below, each of the compounds is paired with its reported TGI value.
- Test system: OVCAR-5 ovarian
- protocol_notes: NCI tumour cell line growth inhibition, 48 h
Hi! Could you send only the number? It should be in µM, unit omitted.

smiles_string	assayed_system	TGI [µM]
Oc1c(Cl)cc(Cl)cc1C(c1cc(Cl)cc(Cl)c1O)C(Cl)(Cl)Cl	OVCAR-5 ovarian	14.5

For the next question, use this compound.
Q: Give TGI for the following compound: Cc1cc(N2CCOCC2)nc(N(CCCNc2ccnc3cc(Cl)ccc23)Cc2ccco2)n1
Result: 19.3

====

- Test system: MDA-N
- protocol_notes: NCI tumour cell line growth inhibition, 48 h
measurement_name: TGI (µM)
Hi! Could you send only the number? It should be in µM, unit omitted.

Sample answers from the record:
compound	TGI [µM]
CC(=O)c1ccc2c(c1)CC1(C2)Cc2ccc3c(c2C1=O)CCC3 (stereo unspecified)	94.6
CCN(CC)C(=S)SC(C(=O)Nc1nnc(-c2ccccc2)o1)c1ccccc1 (stereo unspecified)	36.5
O=S(=O)(SC1=NCCN1)c1cccc2ccccc12	39.4
Cc1ccc(OCC2OC(n3cnc4c(Cl)nc(Cl)nc43)CC2Oc2ccc(C)cc2)cc1 (stereo unspecified)	3.84
COC(=O)C1=C(C)NC(C)=C(C(=O)OC)C1c1ccc(N=O)cc1	16.6

For the next question, use this compound.
Q: Give TGI for the following compound: COc1cc(/C=C\c2nnc(/C=C\c3ccc(O)c(OC)c3)s2)ccc1O
Result: 16.4

====

- Tested on: CAKI-1 renal
- protocol_notes: NCI tumour cell line growth inhibition, 48 h
Below, each of the compounds is paired with its reported TGI value.

Sample answers from the record:
compound	value_reported
CC1=C(/C=C/C(C)=C/C=C/C(C)=C/C(=O)O)C(C)(C)CCC1	> 93.2 µM
O=S1(=O)OCCOS(=O)(=O)C1Cc1cccc2ccccc12	> 100 µM
COC(=O)C(C(=O)C(=O)Nc1cccc([N+](=O)[O-])c1)c1nc2ccc([N+](=O)[O-])cc2[nH]c1=O (stereo not given)	> 100 µM
CC1(c2ccc(Cl)s2)CC(c2ccc(Cl)s2)=C(C#N)C(=C(C#N)C#N)N1 (stereo not given)	34.8 µM
O=C(c1ccccc1)c1nc2ccc(Cl)cc2c2c1CCCO2	> 100 µM

Q: Give TGI for the following compound: CCCCCCCCCCCCCCCCOP(=O)(O)OCC(NC(C)=O)C(=O)O (stereo not given)
Result: > 100 µM

Q: Give TGI for the following compound: O=C1C2C(C(=O)N1c1ccccc1)C1([N+](=O)[O-])C=C3c4ccccc4N(C(=O)c4ccccc4)C32C2C(=O)N(c3ccccc3)C(=O)C21 (stereo not given)
Result: > 100 µM

Q: Give TGI for the following compound: CN(C(=O)C1=CCC2(CC1)OCCO2)c1ccccc1I
Result: > 100 µM

Q: Give TGI for the following compound: CCN(CC)c1ccc(/C=C/C(=O)c2cc(C(C)(C)C)c(O)c(C(C)(C)C)c2)cc1
Result: > 100 µM

Q: Give TGI for the following compound: CCCCCCCCCC(=O)OCC1OC(n2cc(F)c(=O)[nH]c2=O)C(NC(=O)OCc2ccccc2)C(OC(=O)CCCCCCCCC)C1O (stereo not given)
Result: > 100 µM

====

Below, each of the molecules is paired with its reported TGI value.
- Tested on: NCI/ADR-RES ovarian
- protocol_notes: NCI tumour cell line growth inhibition, 48 h

Sample answers from the record:
molecule	value_reported
ONC1=Nc2ccccc2C(=S)N2CSCC12 (stereo not given)	> 100 µM
CCS(=O)(=O)CCn1c(=O)c2c(ncn2C)n(C)c1=O	> 100 µM
O=C1C=CC(=O)N1c1cccc(N2C(=O)C=CC2=O)c1	6.14 µM
CCOC(=O)C1=C(C)N(Cc2ccc(Cl)cc2Cl)C2(O)C=CC(=O)C3=C(O)c4ccccc4C(=O)C312 (stereo not given)	10.3 µM

For the next question, use this molecule.
Q: Give TGI for the following molecule: O=C1OC(C2(O)OC(=O)c3ccccc32)c2ccccc21 (stereo not given)
Result: > 100 µM

====

- Test system: U251 CNS
- protocol_notes: NCI tumour cell line growth inhibition, 48 h
measurement_name: TGI

compound	value_reported
CC1=C(C(=O)Nc2cc(Cl)c3[nH]ncc3c2)C(c2ccc(C(F)(F)F)cc2)CC(=O)N1 (stereo unspecified)	> 25 µM
C#Cc1cc(Br)c(OC(=O)C(C)(C)C)c(-c2cc(C#C)cc(Br)c2OC(=O)C(C)(C)C)c1	> 100 µM
O=c1cc(N=Nc2ccc(Cl)c(Cl)c2)[nH]c(=O)[nH]1	3.65 µM
Cn1c(N)nc(=O)c2c1N(C1OC(CO)C(O)C1O)CN2Cc1ccccc1 (stereo unspecified)	> 100 µM
COc1cc2c(cc1O)C1(Cc3ccc4c(c3C1=O)OCO4)N(C)CC2 (stereo unspecified)	> 100 µM

Q: Give TGI for the following compound: O=C(Nc1cccc(Cl)c1)c1cccc(NC2=C(Cl)C(=O)N(Cc3ccccc3)C2=O)c1
Result: > 100 µM

Q: Give TGI for the following compound: CCNC12CCC(C1)C(C)(C)C2=O (stereo unspecified)
Result: > 100 µM

Q: Give TGI for the following compound: CCS(=O)(=O)CCn1c(=O)c2c(ncn2C)n(C)c1=O
Result: > 100 µM

Q: Give TGI for the following compound: COc1ccc(/C(=C/n2ccnc2)C(O)c2ccc(OC)c(OC)c2)cc1OC (stereo unspecified)
Result: > 100 µM

Q: Give TGI for the following compound: CC(=O)n1cc(OP(=O)(Oc2ccccc2)Oc2ccccc2)c2ccccc21
Result: > 100 µM

Q: Give TGI for the following compound: COC(=O)[C@H]1COC(=O)N1
Result: > 100 µM

====

Below, each of the compounds is paired with its reported TGI value.
- Test system: HT29 colon
- protocol_notes: NCI tumour cell line growth inhibition, 48 h

compound	TGI
CC(=O)O[C@@]12CO[C@@H]1C[C@@H](O)[C@@]1(C)C(=O)[C@H](O)C3=C(C)[C@@H](OC(=O)[C@H](O)[C@@H](NC(=O)c4ccccc4)c4ccccc4)C[C@@](O)([C@@H](OC(=O)c4ccccc4)C12)C3(C)C (some centres undefined)	0.124 µM

Q: Give TGI for the following compound: Clc1ccc(OCc2nnc3sc(-c4ccc(-c5ccc(Cl)cc5Cl)o4)nn23)cc1
Result: > 100 µM

Q: Give TGI for the following compound: CC1=C(O)/C(=C/C(C)CCC/C(C)=C/C=C/C(C)CCCc2ccoc2)OC1=O (centres undefined)
Result: > 100 µM

Q: Give TGI for the following compound: COc1ccc(N=NC(=Nc2ccc(Cl)cc2)c2ccc(N(CCC#N)CCC#N)cc2)cc1
Result: > 100 µM

====

Below, each of the molecules is paired with its reported TGI value.
- System: A549 NSCLC
- protocol_notes: NCI tumour cell line growth inhibition, 48 h

molecule	TGI
OCCNc1nc(Nc2ccc(Cl)c(Cl)c2)nc2ccccc12	18 µM
CC(=O)c1ccc2c(c1)CC1(C2)Cc2ccc3c(c2C1=O)CCC3 (stereo not given)	> 100 µM
NS(=O)(=O)CC1CC[CH-]CC1.[Cl-].[Cl-].[Cl-].[Cl-].[Cl-].[Sb+5].c1ccncc1	> 100 µM
CC(=O)c1c(CO[N+](=O)[O-])n([O-])c2ccccc2[n+]1=O	> 100 µM
O=C1c2ccccc2-c2c1c1c(O)cccc1n2Cc1ccccn1	> 100 µM

Q: Give TGI for the following molecule: CC1(C(=O)Nc2ccc3ccccc3c2)CC2(C)CC(C)(C1)C(O)NC2=O (stereo not given)
Result: > 100 µM

Q: Give TGI for the following molecule: O=C(O)[C@H](Cc1ccccc1)NCCN1CCC[C@H]1C(=O)O
Result: > 100 µM

Q: Give TGI for the following molecule: CC(C)Oc1cccc(N2C(=NCCc3c[nH]c4ccccc34)Nc3ccncc3S2(=O)=O)c1
Result: > 100 µM

====

- Test system: NCI-H226 lung
- protocol_notes: NCI tumour cell line growth inhibition, 48 h
measurement_name: TGI

Sample answers from the record:
compound	TGI
CCOC(=O)c1cnc2sc3ccc4ccccc4c3n2c1=O	> 100 µM
CCOC(=O)c1c(C)n([O-])c2cc(Cl)c(Cl)cc2[n+]1=O	33.5 µM
COC(=O)C1=C(C)NC(C)=C(C(=O)OC)C1c1ccc(N=O)cc1	39.3 µM

Q: Give TGI for the following compound: COc1cc(C2=N/C(=C/c3cccs3)C(=O)O2)cc(OC)c1OC
Result: > 100 µM

Q: Give TGI for the following compound: CCCCCCCCCNC(=O)/C=C/c1ccc(O)c(O)c1
Result: 25.5 µM

====

- Tested on: SNB-75 CNS
- protocol_notes: NCI tumour cell line growth inhibition, 48 h; in the data active = GI50 below about 0.43 µM; inactive = the rest
Returns: one label drawn from active, inactive

Example entries and their recorded answers appear below.
compound	category_label
Cc1ccc(NC(=O)CSc2nnc3n(Cc4ccccc4)c(=O)c4c(C)c(C(N)=O)sc4n23)cc1	inactive
N#Cc1c(N)nc(N2CCOCC2)c(C#N)c1-c1ccccn1	inactive

Q: Write down the call the test reported for this compound. Item: CO/N=C(\COc1ccc2oc(-c3ccccc3)cc(=O)c2c1)c1ccc(OC)cc1
Result: inactive

Q: Write down the call the test reported for this compound. Item: CC(=[N-])N1CCC[C@@H](Nc2c3ccccc3nc3ccccc23)C1.[Cl][Pt].[NH-]CCC[NH-]
Result: inactive

Q: Write down the call the test reported for this compound. Item: O=C(N/N=C/c1ccc(O)cc1O)c1cccc(Nc2ccnc(C(F)(F)F)c2)c1
Result: inactive

Q: Write down the call the test reported for this compound. Item: CCN(CC)C(=S)SCN1C(=O)c2ccccc2S1(=O)=O
Result: inactive
